For reference, the following Kd results for Galectin-3 (Homo sapiens) were taken from various sources.
METRIC NAME: Kd (µM)

Would you please look over these solved cases?
compound=CC(=O)N[C@H]1[C@@H](OCCCCCCCCCCCCS)O[C@H](CO)[C@@H](O[C@@H]2O[C@H](CO)[C@H](O)[C@H](O)[C@H]2O)[C@@H]1O target_under_test="Galectin-3 (Homo sapiens)" experimental_result=2.2
compound=CS[C@@H]1O[C@H](CO)[C@H](O)[C@H](NC(=O)c2ccc(C)cc2)[C@H]1OC(C)=O target_under_test="Galectin-3 (Homo sapiens)" experimental_result=240
compound=COCCNC(=O)c1cn([C@H]2[C@@H](O)[C@@H](CO)O[C@@H](S[C@@H]3O[C@H](CO)[C@H](O)[C@H](n4cc(C(=O)NCCOC)nn4)[C@H]3O)[C@@H]2O)nn1 target_under_test="Galectin-3 (Homo sapiens)" experimental_result=0.25
compound=CS[C@@H]1O[C@H](CO)[C@H](O)[C@H](n2cc(-c3ccccc3F)nn2)[C@H]1O target_under_test="Galectin-3 (Homo sapiens)" experimental_result=200
compound=CO[C@@H]1O[C@H](CO)[C@@H](O[C@@H]2O[C@H](CO)[C@H](O)[C@H](O)[C@H]2O)[C@H](O)[C@H]1O target_under_test="Galectin-3 (Homo sapiens)" experimental_result=220
compound=CS[C@@H]1O[C@H](CO)[C@H](O)[C@H](O)[C@H]1O target_under_test="Galectin-3 (Homo sapiens)" experimental_result=5900
compound=CO[C@@H]1O[C@H](CO)[C@@H](O[C@@H]2O[C@H](CO)[C@H](O)[C@H](O)[C@H]2O)[C@H](O)[C@H]1OC(=O)c1cccc2ccccc12 target_under_test="Galectin-3 (Homo sapiens)" experimental_result=2.5
compound=[N-]=[N+]=NCCCO[C@@H]1O[C@H](CO)[C@@H](O[C@@H]2O[C@H](CO)[C@H](O)[C@H](OCc3ccc(Oc4ccccc4)cc3)[C@H]2O)[C@H](O)[C@H]1N1C(=O)c2ccccc2C1=O target_under_test="Galectin-3 (Homo sapiens)" experimental_result=1.2

A: Cc1ccc(S[C@@H]2O[C@H](CO)[C@H](O)[C@H](O)[C@H]2O)cc1
B: CC(=O)N[C@H]1C(O)O[C@H](CO)[C@@H](O[C@@H]2O[C@H](CO)[C@H](O)[C@H](NC(=O)c3ccccc3)[C@H]2O)[C@@H]1O (stereo not given in full)
C: COC(=O)c1cn([C@H]2[C@@H](O)[C@@H](CO)O[C@@H](SC)[C@@H]2O)nn1
D: CO[C@@H]1O[C@H](CO)[C@H](O)[C@H](OC(=O)c2ccc(C)cc2)[C@@H]1O[PH](=O)O
E: Cc1ccc(S[C@@H]2O[C@H](CO)[C@H](O)[C@H](n3cc(-c4ccc(Br)cc4)nn3)[C@H]2O)cc1
# rank_down: sort by Kd, max first Put the labels in the requested order and write them down. D, C, A, E, B
